# experimental.target: BCR–ABL (Homo sapiens)
# Construct: assessed in human CML K562 cells bearing BCR–ABL; host or cells: K562
# test: BCR–ABL degradation in K562 cells (immunoblot)
# Assay type: cell-based
# condition.details: 5 nM, 48 h, read-out: DMax (maximum degradation percentage in comparison with control) at 5 nM
So I've got a bunch of molecules here, and I need their Dmax at 0.005 µM values.
One number for each entry, in %.

// below: answered molecules
molecule: Cc1nc(Nc2ncc(C(=O)Nc3c(C)cccc3Cl)s2)cc(N2CCN(CCOC(=O)CCOCCNC(=O)[C@@H](N)CC(C)C)CC2)n1
property: Dmax at 0.005 µM
reported: 91.2
//
molecule: Cc1nc(Nc2ncc(C(=O)Nc3c(C)cccc3Cl)s2)cc(N2CCN(CCOC(=O)CCOCCNC(=O)C(N)CCCNC(=N)N)CC2)n1 (stereo not shown)
property: Dmax at 0.005 µM
reported: 98.8
//
molecule: Cc1nc(Nc2ncc(C(=O)Nc3c(C)cccc3Cl)s2)cc(N2CCN(CCOC(=O)CCOCCNC(=O)[C@@H](N)CCCCN)CC2)n1
property: Dmax at 0.005 µM
reported: 99.1

With those in mind, consider the next molecule.
Please report the measured Dmax at 0.005 µM for `Cc1nc(Nc2ncc(C(=O)Nc3c(C)cccc3Cl)s2)cc(N2CCN(CCOC(=O)CCOCCNC(=O)[C@@H](N)Cc3ccccc3)CC2)n1`
81

###

# experimental.target: BCR–ABL (Homo sapiens, UniProt P00519+P11274)
# Sequence (P00519 whole entry, looked up): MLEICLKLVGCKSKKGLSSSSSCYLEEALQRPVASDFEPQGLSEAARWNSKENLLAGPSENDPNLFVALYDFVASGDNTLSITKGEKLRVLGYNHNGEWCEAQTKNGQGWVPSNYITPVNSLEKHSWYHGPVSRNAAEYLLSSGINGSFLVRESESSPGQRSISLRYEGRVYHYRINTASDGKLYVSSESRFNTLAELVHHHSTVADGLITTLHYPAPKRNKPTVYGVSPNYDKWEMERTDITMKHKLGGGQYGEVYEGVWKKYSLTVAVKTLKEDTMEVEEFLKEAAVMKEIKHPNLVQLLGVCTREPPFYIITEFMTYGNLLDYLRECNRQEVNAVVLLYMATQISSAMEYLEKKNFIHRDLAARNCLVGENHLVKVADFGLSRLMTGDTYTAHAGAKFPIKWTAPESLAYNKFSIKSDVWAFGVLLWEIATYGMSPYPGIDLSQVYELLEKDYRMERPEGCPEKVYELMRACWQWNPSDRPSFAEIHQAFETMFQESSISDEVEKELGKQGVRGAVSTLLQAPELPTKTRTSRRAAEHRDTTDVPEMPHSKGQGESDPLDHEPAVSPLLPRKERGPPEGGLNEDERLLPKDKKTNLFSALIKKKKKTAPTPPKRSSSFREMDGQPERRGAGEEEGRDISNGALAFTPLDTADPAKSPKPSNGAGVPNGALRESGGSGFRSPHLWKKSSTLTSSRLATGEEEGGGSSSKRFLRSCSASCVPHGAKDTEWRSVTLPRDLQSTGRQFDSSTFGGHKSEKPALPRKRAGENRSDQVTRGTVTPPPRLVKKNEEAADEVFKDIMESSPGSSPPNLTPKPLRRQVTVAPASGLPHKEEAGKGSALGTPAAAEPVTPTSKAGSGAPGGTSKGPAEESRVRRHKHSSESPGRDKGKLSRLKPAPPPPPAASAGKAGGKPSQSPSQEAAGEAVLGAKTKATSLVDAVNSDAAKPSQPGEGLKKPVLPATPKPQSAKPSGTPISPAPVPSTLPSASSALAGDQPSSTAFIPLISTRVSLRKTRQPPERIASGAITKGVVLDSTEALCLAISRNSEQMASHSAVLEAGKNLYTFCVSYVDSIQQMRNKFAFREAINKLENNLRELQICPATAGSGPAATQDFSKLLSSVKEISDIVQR
# Sequence (P11274+P00519 fused): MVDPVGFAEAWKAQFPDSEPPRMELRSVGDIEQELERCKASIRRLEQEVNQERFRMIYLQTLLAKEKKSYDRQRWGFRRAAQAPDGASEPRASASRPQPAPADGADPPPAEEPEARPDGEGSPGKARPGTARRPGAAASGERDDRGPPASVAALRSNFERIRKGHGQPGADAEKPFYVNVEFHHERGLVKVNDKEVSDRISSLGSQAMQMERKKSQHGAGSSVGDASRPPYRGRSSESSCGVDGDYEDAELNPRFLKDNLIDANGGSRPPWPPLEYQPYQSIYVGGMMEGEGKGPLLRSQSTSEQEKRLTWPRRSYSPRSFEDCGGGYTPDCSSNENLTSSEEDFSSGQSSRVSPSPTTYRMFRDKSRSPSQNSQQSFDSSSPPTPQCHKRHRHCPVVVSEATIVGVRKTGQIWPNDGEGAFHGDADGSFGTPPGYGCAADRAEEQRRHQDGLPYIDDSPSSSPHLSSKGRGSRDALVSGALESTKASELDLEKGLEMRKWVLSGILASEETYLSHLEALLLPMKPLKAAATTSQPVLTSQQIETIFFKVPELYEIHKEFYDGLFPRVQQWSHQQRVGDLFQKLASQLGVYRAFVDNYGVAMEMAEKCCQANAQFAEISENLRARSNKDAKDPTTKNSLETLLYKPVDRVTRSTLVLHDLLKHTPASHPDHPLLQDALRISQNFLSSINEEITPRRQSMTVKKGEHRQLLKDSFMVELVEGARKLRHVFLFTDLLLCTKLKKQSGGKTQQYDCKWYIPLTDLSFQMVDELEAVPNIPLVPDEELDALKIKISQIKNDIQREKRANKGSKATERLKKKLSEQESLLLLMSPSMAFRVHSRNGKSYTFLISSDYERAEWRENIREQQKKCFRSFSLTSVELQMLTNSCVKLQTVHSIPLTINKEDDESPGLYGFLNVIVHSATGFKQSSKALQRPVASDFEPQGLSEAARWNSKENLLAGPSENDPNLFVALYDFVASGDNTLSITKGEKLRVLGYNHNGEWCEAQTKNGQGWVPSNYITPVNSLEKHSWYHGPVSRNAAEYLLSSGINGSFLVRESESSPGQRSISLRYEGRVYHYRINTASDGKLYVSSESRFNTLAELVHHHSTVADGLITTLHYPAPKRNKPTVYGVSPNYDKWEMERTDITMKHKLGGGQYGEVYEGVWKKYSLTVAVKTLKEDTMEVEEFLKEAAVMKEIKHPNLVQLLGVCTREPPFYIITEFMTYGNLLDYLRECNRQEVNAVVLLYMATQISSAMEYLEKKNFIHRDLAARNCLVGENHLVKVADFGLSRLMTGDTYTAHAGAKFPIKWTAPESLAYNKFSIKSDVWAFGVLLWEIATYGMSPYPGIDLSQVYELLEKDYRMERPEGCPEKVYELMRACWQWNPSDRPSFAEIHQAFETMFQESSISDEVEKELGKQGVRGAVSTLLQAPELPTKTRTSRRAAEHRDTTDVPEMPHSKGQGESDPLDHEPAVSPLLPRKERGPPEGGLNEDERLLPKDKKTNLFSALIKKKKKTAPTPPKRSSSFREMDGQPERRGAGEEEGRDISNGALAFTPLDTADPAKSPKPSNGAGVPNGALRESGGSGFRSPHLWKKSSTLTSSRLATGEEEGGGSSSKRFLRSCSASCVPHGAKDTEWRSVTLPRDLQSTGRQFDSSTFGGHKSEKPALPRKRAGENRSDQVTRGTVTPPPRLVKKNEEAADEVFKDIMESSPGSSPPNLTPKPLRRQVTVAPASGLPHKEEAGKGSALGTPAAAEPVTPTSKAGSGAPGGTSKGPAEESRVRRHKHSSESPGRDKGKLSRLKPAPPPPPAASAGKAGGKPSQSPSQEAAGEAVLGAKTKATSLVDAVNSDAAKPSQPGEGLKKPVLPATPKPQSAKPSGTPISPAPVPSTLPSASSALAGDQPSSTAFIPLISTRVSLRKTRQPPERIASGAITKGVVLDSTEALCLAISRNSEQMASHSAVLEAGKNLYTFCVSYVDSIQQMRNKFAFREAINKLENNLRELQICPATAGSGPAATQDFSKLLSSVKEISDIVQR
# test: BCR–ABL degradation in K562 cells (immunoblot)
# Assay type: cell-based
# Design: assessed in human CML K562 cells bearing BCR–ABL; host or cells: K562
# condition.details: 1 nM
# Procedure: The ability of Arg-PEGn-Dasa PROTACs to induce BCR–ABL degradation was assessed in human CML K562 cells bearing BCR–ABL. […] We next evaluated the impact of Arg-PEGn-Dasa on cell proliferation in K562 cells using Cell Counting Kit-8 (CCK-8) assay. […]
property: time at which BCR–ABL reduction appears
Answer format: number, then unit.

// below: answered molecules
molecule: Cc1nc(Nc2ncc(C(=O)Nc3c(C)cccc3Cl)s2)cc(N2CCN(CCOC(=O)CCOCCNC(=O)[C@@H](N)Cc3ccccc3)CC2)n1 [Phe-PEG1-Dasa]
time at which BCR–ABL reduction appears: 36 h

molecule: Cc1nc(Nc2ncc(C(=O)Nc3c(C)cccc3Cl)s2)cc(N2CCN(CCOC(=O)CCOCCNC(=O)[C@@H](N)CC(C)C)CC2)n1 [Leu-PEG1-Dasa]
time at which BCR–ABL reduction appears: 12 h

molecule: Cc1nc(Nc2ncc(C(=O)Nc3c(C)cccc3Cl)s2)cc(N2CCN(CCOC(=O)CCOCCNC(=O)[C@@H](N)CCCCN)CC2)n1 [Lys-PEG1-Dasa]
time at which BCR–ABL reduction appears: 48 h

With those in mind, consider the next molecule.
Please report the measured time at which BCR–ABL reduction appears for Cc1nc(Nc2ncc(C(=O)Nc3c(C)cccc3Cl)s2)cc(N2CCN(CCOC(=O)CCOCCNC(=O)C(N)CCCNC(=N)N)CC2)n1 (stereo not shown) [Arg-PEG1-Dasa]
48 h
